Measured self-cleavage by item
B1: HDV Ribozyme (parent)
chain: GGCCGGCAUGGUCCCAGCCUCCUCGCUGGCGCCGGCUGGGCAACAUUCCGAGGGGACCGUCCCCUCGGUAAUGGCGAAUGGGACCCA

- Variants of: B1
- Protocol description: self-cleavage, relative activity (ratio to wild type); higher = more cleavage; co-transcriptional
API note: the answer field is a bare number with no unit suffix.

C44U A51C    0.931

**Q:** Reported self-cleavage for G35U U60A : what is it?
**A:** 0.415

**Q:** Name the recorded self-cleavage for C41G G59C .
**A:** 0.919

**Q:** Requested read-out: self-cleavage. Entry: G35A G81U
**A:** 0.105

**Q:** Item under review: G6A G25A . Reported self-cleavage?
**A:** 0.121

**Q:** Recorded self-cleavage for G5A U12C , please?
**A:** 0.0615

Taken from the RNAGym collection of RNA variant scans (doi:10.7554/elife.80360).
